Hey, just so you know, these numbers are from PubChem BioAssay (NCI).

- Test system: SF-295 CNS
- test_description: NCI tumour cell line growth inhibition, 48 h
result_type: TGI (µM)
Quick note: give the figure in µM, leave out the unit.

Some solved entries appear below for comparison.
molecule: O=C(CCCCCCSc1nc(-c2ccccc2)cc(-c2ccc(Cl)cc2)n1)NO
output_unit: µM
TGI: 6.7
//
molecule: Cc1cc2c(cc1Cl)Sc1nnc(Nc3ccccc3)n1S2(=O)=O
output_unit: µM
TGI: 49.6
//
molecule: CCOC(=O)/C(=C\NCC(O)c1ccccc1)c1nc2ccccc2[nH]1 (stereo not drawn)
output_unit: µM
TGI: 67

Turning now to a further record.
Q: For the molecule `COc1cc(O)c([C@@H]2C[C@H](CCc3ccc(O)cc3)O[C@H](c3ccc(O)cc3)C2)c(O)c1C(=O)/C=C/c1ccc(O)cc1` , what TGI is on record?
Ans: 17.9

----------
- Test system: U251 CNS
- test_description: NCI tumour cell line growth inhibition, 48 h
result_type: TGI (µM)
Quick note: give the figure in µM, leave out the unit.

Some solved entries appear below for comparison.
compound: CCN(CC)Cc1nc2sc3c(c2c(=O)n1-c1ccccc1)CCCC3
study_target: U251 CNS
TGI / µM: 31.3
--
compound: CC(=O)OC(Cc1cc(C=C(C(F)(F)F)C(F)(F)F)cc(C)n1)(C(F)(F)F)C(F)(F)F
study_target: U251 CNS
TGI / µM: 4.74
--
compound: COc1cc(O)c([C@@H]2C[C@H](CCc3ccc(O)cc3)O[C@H](c3ccc(O)cc3)C2)c(O)c1C(=O)/C=C/c1ccc(O)cc1
study_target: U251 CNS
TGI / µM: 9.22
--
compound: O=C1C(Br)=CC2([N+](=O)[O-])CCNc3c(O)c4c5c(c3C2=C1Br)=NCCC=5C=N4 (centres undefined)
study_target: U251 CNS
TGI / µM: 3.96
--
compound: O=C(CSc1nc2ccccc2[nH]1)Nc1ccc(-c2nc3ccccc3s2)c(Cl)c1
study_target: U251 CNS
TGI / µM: 4.33
--
compound: CCCC/C=C1\CCC(CN2CCCCC2)C1=O (centres undefined)
study_target: U251 CNS
TGI / µM: 44.1
--
compound: Cc1ccc(C(=O)N(C2CCCCC2)C2CCCCC2)cc1N=NN(C)C
study_target: U251 CNS
TGI / µM: 34.1
--
compound: Cc1cc2c(cc1Cl)Sc1nnc(Nc3ccccc3)n1S2(=O)=O
study_target: U251 CNS
TGI / µM: 19.1
--
compound: CC(C)/C(Cl)=N/OC(=O)Nc1ccc(F)c(Cl)c1
study_target: U251 CNS
TGI / µM: 40.3
--
compound: CNC(=O)c1cc(OC2CCC(NC(=O)Nc3ccc(Cl)c(C(F)(F)F)c3)CC2)ccn1 (centres undefined)
study_target: U251 CNS
TGI / µM: 23.4

Turning now to a further record.
Q: For the compound COc1cccc(C2CC(C)(N3CCCC3)Oc3cc4c(cc32)OCO4)c1O (centres undefined) , what TGI is on record?
Ans: 77.4

----------
TGI overview
- System: T-47D breast
- test_description: NCI tumour cell line growth inhibition, 48 h

Some solved entries appear below for comparison.
compound: COc1cccc(N2C(=O)C3c4[nH]c5ccccc5c4C4c5ccccc5CCC4C3C2=O)c1 (stereo not drawn)
result_type: TGI
measured: > 10 µM

compound: CN1CC2=C(OC(N)=C(C#N)C2c2cccs2)/C(=C/c2cccs2)C1 (stereo not drawn)
result_type: TGI
measured: 1.47 µM

compound: C=CC(=O)N1C/C(=C\c2ccc(N(C)C)cc2)C(=O)/C(=C/c2ccc(N(C)C)cc2)C1
result_type: TGI
measured: > 100 µM

compound: O=c1[nH]nc(Cc2ccccc2)n1/N=C/c1c[nH]c2ccccc12
result_type: TGI
measured: > 100 µM

compound: NCCC(N)C(=O)O (stereo not drawn)
result_type: TGI
measured: > 100 µM

compound: N#CCC1COc2ccccc2O1 (stereo not drawn)
result_type: TGI
measured: > 10 µM

compound: Nc1nc(SCc2ccccn2)c2ncn(C3CCCC3)c2n1
result_type: TGI
measured: > 100 µM

compound: CC(C)(CO)CNc1cc(=O)[nH]c(N)n1
result_type: TGI
measured: > 100 µM

Q: Any idea what TGI came out for `COc1nc(N(C)O)nc(N(C)O)n1` on T-47D breast?
Ans: > 100 µM

Q: Also check `O=C(CN1CCN(c2ncccn2)CC1)Nc1ccc(Cl)cc1C(=O)c1ccccc1Cl`
Ans: > 100 µM

Q: Also check `Brc1ccc(N=NN2CCCCC2)cc1`
Ans: > 100 µM

Q: Also check `O=C(Nc1ccccc1)O/N=C(/CBr)c1ccccc1`
Ans: 32.6 µM
